Assay: Photochromic properties of photochromic laminate (plastic lens) prepared by coating method
Type: physicochemical
Conditions: 40 µm photochromic layer on thiourethane lens, 0.25 mmol compound per 100 g monomers, after color development
Below, each of the molecules is paired with its reported Maximum absorption wavelength value.

- molecule: "COc1ccc(C2(c3ccc(N(C)c4ccccc4)cc3)C=Cc3c4c(c5cc6c(cc5c3O2)SC(C)(C)S6)-c2ccc(-c3ccc(F)c(F)c3F)cc2C42CCCCCCCCCCC2)cc1 (centres unmarked) [Example 52]"
  Maximum absorption wavelength: "488 nm"
- molecule: "COCCC1(CCOC)c2ccccc2-c2c1c1c(c3cc(OC)c(-c4ccc(N(c5ccccc5)c5ccccc5)cc4)cc23)OC(c2ccc(Oc3ccccc3)cc2)(c2ccc(N(C)c3ccccc3)cc2)C=C1 (centres unmarked) [Example 23]"
  Maximum absorption wavelength: "506 nm"
- molecule: "COc1ccc(C2(c3ccc(N(C)c4ccccc4)cc3)C=Cc3c4c(c5cc(-c6c(OC)cc(OC)cc6OC)c(OC)cc5c3O2)-c2ccc(C)cc2C4(CCCSC)CCCSC)cc1 (centres unmarked) [Example 12]"
  Maximum absorption wavelength: "478 nm"
- molecule: "CCCCN(c1ccccc1)c1ccc(C2(c3ccc(C)cc3)C=Cc3c4c(c5cc(N6CCOCC6)c(OC)cc5c3O2)-c2ccccc2C4(CC)CC)cc1 (centres unmarked) [Example 10]"
  Maximum absorption wavelength: "512 nm"
- molecule: "CCCC1(CCC)c2cc(OC)ccc2-c2c1c1c(c3cc(OC)ccc23)OC(c2ccc(OC)cc2)(c2ccc(N(C)c3ccccc3)cc2)C=C1 (centres unmarked) [Example 3]"
  Maximum absorption wavelength: "470 nm"
